Catalogue of pIC50 values
Target: PI 3-kinase delta (Homo sapiens)
Sequence (O00329 whole entry): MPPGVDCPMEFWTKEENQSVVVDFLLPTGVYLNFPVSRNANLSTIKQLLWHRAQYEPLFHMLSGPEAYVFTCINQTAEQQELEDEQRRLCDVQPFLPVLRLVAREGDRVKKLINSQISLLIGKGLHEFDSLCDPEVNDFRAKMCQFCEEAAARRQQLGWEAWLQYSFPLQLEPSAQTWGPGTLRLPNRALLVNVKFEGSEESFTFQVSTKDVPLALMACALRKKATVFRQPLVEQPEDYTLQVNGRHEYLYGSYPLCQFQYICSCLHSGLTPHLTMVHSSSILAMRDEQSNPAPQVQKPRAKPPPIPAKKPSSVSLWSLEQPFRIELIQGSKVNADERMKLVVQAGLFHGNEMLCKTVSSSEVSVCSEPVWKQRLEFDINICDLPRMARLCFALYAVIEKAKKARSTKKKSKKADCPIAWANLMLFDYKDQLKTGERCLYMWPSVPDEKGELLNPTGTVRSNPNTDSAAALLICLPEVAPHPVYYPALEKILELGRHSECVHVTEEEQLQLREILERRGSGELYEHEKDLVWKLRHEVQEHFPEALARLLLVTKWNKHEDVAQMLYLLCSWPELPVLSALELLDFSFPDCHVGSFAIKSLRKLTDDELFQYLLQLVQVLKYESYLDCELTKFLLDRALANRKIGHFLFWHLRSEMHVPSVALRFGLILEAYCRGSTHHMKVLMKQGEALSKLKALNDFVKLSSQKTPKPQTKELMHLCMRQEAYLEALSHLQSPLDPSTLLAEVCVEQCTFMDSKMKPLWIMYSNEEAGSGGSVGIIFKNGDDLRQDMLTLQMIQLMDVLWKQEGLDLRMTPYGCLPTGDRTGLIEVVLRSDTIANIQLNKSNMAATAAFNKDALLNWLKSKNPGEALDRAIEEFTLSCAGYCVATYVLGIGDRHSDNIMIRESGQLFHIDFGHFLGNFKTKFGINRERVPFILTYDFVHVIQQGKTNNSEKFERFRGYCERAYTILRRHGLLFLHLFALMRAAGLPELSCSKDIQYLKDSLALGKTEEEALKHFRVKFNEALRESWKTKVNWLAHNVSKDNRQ
Sequence (Q63787 whole entry partner): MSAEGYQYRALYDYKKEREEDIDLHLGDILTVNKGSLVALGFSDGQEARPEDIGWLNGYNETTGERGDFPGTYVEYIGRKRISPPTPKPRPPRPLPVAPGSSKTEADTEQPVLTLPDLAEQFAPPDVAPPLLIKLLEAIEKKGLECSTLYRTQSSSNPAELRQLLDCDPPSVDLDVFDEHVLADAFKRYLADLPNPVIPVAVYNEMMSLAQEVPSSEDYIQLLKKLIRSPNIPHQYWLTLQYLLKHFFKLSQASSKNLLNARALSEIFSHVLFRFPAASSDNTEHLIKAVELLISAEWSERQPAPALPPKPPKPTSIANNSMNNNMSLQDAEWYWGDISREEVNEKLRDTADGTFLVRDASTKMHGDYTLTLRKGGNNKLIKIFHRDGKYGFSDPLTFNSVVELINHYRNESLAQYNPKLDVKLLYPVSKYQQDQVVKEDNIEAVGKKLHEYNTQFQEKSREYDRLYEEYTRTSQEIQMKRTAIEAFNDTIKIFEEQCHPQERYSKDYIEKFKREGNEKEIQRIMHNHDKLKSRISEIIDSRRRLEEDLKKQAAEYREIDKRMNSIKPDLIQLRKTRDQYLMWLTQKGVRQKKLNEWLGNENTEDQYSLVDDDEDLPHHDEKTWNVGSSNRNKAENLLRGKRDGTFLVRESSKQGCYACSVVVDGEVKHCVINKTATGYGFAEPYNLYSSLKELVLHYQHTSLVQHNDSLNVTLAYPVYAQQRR
Test: Cellular assay J1, p-Akt (S473) in Rat-1 cells, Surefire format
Format: cell-based
Conditions: non-asterisked data: version J1 (Surefire format), Rat-1 cells; read-out: Assay J PI3Kδ IC50
Where a name gives a salt, the structure may show the parent alone.
Just so you know, pIC50 here is -log10 of the concentration in molar units; reply with that number alone.

> print(dat)
                                   compound  observed.property  observed.measurement
1  Cc1ccc(S(=O)(=O)NOC2CCOC2)cc1-c1cnc(N)c(-n2cncn2)n1 (stereo not shown) [Example 112.5]              pIC50                  6.08
2  Cc1ccc(S(=O)(=O)NCCC(C)(C)O)cc1-c1cnc(N)c(-c2cnn(Cc3ccccc3)c2)n1 [Example 132, hydrochloride]              pIC50                  6.46

Consider the additional compound presented here.
For Cc1ccc(S(=O)(=O)NC2CC3(CC(O)C3)C2)cc1-c1cnc(N)c(-n2cncn2)n1 (stereo not shown) [Example 67] the compound record lists pIC50 as 6.04
